# Tested on: RPMI-8226 leukemia
# Experimental Details: NCI tumour cell line growth inhibition, 48 h
Assay Metric: TGI (µM)
Write down the numeric answer in µM and omit the unit.

Query: Recorded TGI of `CN(C)CCNC(=O)c1cccc2nc3c4ccccc4c4ccccc4c3nc12` , please.
Response: 5.3

Query: Recorded TGI of `C=CC[Se]C(=O)Cc1c(C)n(C(=O)c2ccc(Cl)cc2)c2ccc(OC)cc12` , please.
Response: 5.86

Query: Recorded TGI of `CCCCSCc1nc2nc(Cl)c(Cl)nc2[nH]1` , please.
Response: 38.2

Query: Recorded TGI of `CC(C)C[C@H](NC(=O)CCc1ccccc1)B(O)O` , please.
Response: 6.11

Query: Recorded TGI of `COc1ccc(CNc2nc(NCc3ccc(OC)cc3)nc(NC(C)C)n2)cc1` , please.
Response: 5.3

Query: Recorded TGI of `CCc1ccccc1-n1c2nc(=O)n(C)c(=O)c-2nc2ccccc21` , please.
Response: 58.7

Query: Recorded TGI of `COc1ccc2nc3cc([N+](=O)[O-])ccc3c(NNc3ccc(Cl)cc3)c2c1` , please.
Response: 78.7

Query: Recorded TGI of `CCCCCCNC(=O)Oc1ccc(/C(=C(\C)c2ccccc2)c2ccc(OCCN3CCCCC3)cc2)cc1` , please.
Response: 5.57

Query: Recorded TGI of `CN(C)CCOc1nc2c3cccnc3cc(-c3cccc(Cl)c3)c2c2ncccc12` , please.
Response: 6.24

Query: Recorded TGI of `COc1ccc2[nH]c(-c3cccc(N(C)C)c3)cc(=O)c2c1` , please.
Response: 0.844

----------
Field: TGI. Provide a value for each of the compounds that follow.
# Tested on: OVCAR-5 ovarian
# Experimental Details: NCI tumour cell line growth inhibition, 48 h

Query: Recorded TGI of `CN(C)c1ccc(/C=C2\N=C(N/N=C/c3ccccc3)NC2=O)cc1` , please.
Response: > 100 µM

Query: Recorded TGI of `COC(=O)[C@H]1C=C[C@@H](C)n2c(=O)c3ccccc3c(=O)n21` , please.
Response: > 100 µM

Query: Recorded TGI of `O=C(O)c1cc(-c2ccccc2O)nc2ccccc12` , please.
Response: > 100 µM

Query: Recorded TGI of Cc1ccc(C2SCc3nc4ccc(C(=O)c5ccccc5)cc4n32)cc1 (stereo unspecified) , please.
Response: 55.2 µM

Query: Recorded TGI of CC(NC(=O)/C(C#N)=C/c1ccc2[nH]ccc2c1)c1ccccc1 (stereo unspecified) , please.
Response: 37.3 µM

Query: Recorded TGI of `CCOC(=O)C1=C(O)c2ccccc2C(=O)C1=O` , please.
Response: > 100 µM

Query: Recorded TGI of `CCOC(=O)c1c2c(c(O)c3ccccc3c(O)n(-c3ccc(C)cc3)c1C)C(=O)C=CC2=O` , please.
Response: > 100 µM

Query: Recorded TGI of `CC1=NN2C(=O)CC(=O)N=C2S1` , please.
Response: > 100 µM

Query: Recorded TGI of `CCCCOP(=O)(OCCCC)/C(C#N)=C/c1ccco1` , please.
Response: > 100 µM

Query: Recorded TGI of `CC1(C)OC(=O)C(C)(C)OC1=O` , please.
Response: > 100 µM

Query: Recorded TGI of `CCOC(=O)c1nc2ccc(Cl)cc2c2c1CCO2` , please.
Response: > 100 µM

Query: Recorded TGI of `C[C@@H]1CC[C@H]2C(COC/C=C/COCC3=C(C(F)(F)F)O[C@@H]4O[C@@]5(C)CC[C@H]6[C@H](C)CC[C@@H]3[C@@]46OO5)=C(C(F)(F)F)O[C@@H]3O[C@@]4(C)CC[C@@H]1[C@]32OO4` , please.
Response: > 100 µM

Query: Recorded TGI of `Cc1cnc2[nH]c(-c3ccc(F)cc3)cc(=O)c2c1` , please.
Response: > 100 µM

Query: Recorded TGI of CC1=CCC[C@@](C)(O)[C@@H]2C[C@H]3C(CSc4ccccc4)C(=O)O[C@H]3[C@@H](O2)[C@H](C)CCC1 (stereo partly specified) , please.
Response: 30.7 µM

Query: Recorded TGI of `O=C(N/C(=C\c1ccc(Br)cc1)c1nc2ccccc2s1)c1ccccc1` , please.
Response: > 100 µM

Query: Recorded TGI of `c1ccc([C@@H]2N[C@@]3(CO[Si](c4ccccc4)(c4ccccc4)c4ccccc4)CC[C@H]4CN[C@@H]2[C@H]43)cc1` , please.
Response: 31 µM

Query: Recorded TGI of `COC(C/C(=C/CO[Si](C(C)C)(C(C)C)C(C)C)C(=O)Nc1ccccc1I)OC` , please.
Response: 70 µM

Query: Recorded TGI of `O=C(c1ccco1)c1c(C(F)(F)F)nc2cc(C(F)(F)F)ccc2[n+]1[O-]` , please.
Response: > 100 µM

Query: Recorded TGI of `CCOC(=O)CC1=NC(=Nc2cc(Cl)ccc2Cl)SC1` , please.
Response: > 100 µM

Query: Recorded TGI of `CCOC(=O)c1c(C)n(CC(C)C)c2c1cc1oc(=O)c(=O)n3cnc2c13` , please.
Response: > 50 µM

Query: Recorded TGI of `CCOC(=O)N1c2ccccc2S(=O)(=O)c2ccccc21` , please.
Response: > 100 µM
